- TESTED ON: GLP-1 receptor
- PROTOCOL TEXT: cell-based or functional assay
Ends that are not written are not given here.
EXPERIMENTAL ENDPOINT: In Vitro Activity (% of Val^8-GLP-1(7-37)OH)

Examples with their reported In Vitro Activity (% of Val^8-GLP-1(7-37)OH) follow.
| BINDER | ASSAY VALUE |
| --- | --- |
| HAEGTFTSDVSSYLEGQAAKEFIAWLVKGRPSSGAPPPS-NH2 [HAEGTFTSDVSSYLEGQAAKEFIAWLVKGRPSSGAPPPS-NH2] | 3.3 % of Val^8-GLP-1(7-37)OH |
| HGEGTFTSDVSSYLEEEAVRLFIEWLKNGGP-NH2 [HGEGTFTSDVSSYLEEEAVRLFIEWLKNGGP-NH2] | 5.4 % of Val^8-GLP-1(7-37)OH |

In Vitro Activity (% of Val^8-GLP-1(7-37)OH) reading for `HVEGTFTSDVSSYLEEEAVRLFIAWLVKGRG` : 1.47 % of Val^8-GLP-1(7-37)OH

From: patent US20040053370A1
